In this section, each of the molecules is paired with its reported zone of inhibition at 100 µg/mL.
- Test system: Bacillus subtilis
- Assay summary: Antibacterial activity against Bacillus subtilis MTCC 8509 at 100 ug/mL by agar well diffusion method
- Type: functional
- Reported conditions: read-out: DIZ
# number only, unit mm dropped from output

• Cc1cc2nnc(-c3ccc(Cl)cc3)n2c(C)n1 = 11.3

## Task What value of zone of inhibition at 100 µg/mL on Bacillus subtilis does COc1cc(O)ccc1-c1nnc2cc(C)nc(C)n12 have?
## Result 61.7

## Task And then Cc1cc2nnc(-c3cccnc3)n2c(C)n1 , what is it?
## Result 65.7

## Task And then Cc1cc2nnc(-c3cccs3)n2c(C)n1 , what is it?
## Result 13.7
